Would you mind telling me the reported A450 of each entry?
- measured_on: T1, Human Id2: Histidine (human, UniProt Q02363 1-134, limits assumed)
- T1 construct: Fusion protein made in E. coli from vector pGW07; also called h-Id2: His; not shown: His tag
- T1 sequence (looked up): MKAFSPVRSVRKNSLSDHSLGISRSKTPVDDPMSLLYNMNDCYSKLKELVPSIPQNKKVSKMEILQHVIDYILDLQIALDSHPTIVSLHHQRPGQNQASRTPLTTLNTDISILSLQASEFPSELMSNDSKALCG
- assay_summary: ELISA, Ab 0.010 µg/ml

Reference set (3 entries):
binder	measured_metric	endpoint_value
rabbit monoclonal anti-mouse/human Id3, clone #BCH-4/#6-1 (antibody, V domains shown, Rabbit IgG from a rabbit hybridoma; also called m/h Id3 MoAb 6-1) VH: QSVEESGGRLVTPGTPLTLTCTASGFSLSNVYIHWVRQAPGKGLEWIGYISDGDTARYATWAKGRFTISKTSSTTVNLKMTSLTTEDTATYFCARQGFNIWGPGTLVTVSL VL: AVLTQTPSPVSAAVGGTVSISCQSSQSVWNNNWLSWFQQKPGQPPKLLIYETSKLESGVPSRFKGSGSGTQFTLTISDVQCDDAATYYCLGGYWTTSDNNVFGGGTEVVVK	A450	0.044 A450
rabbit monoclonal anti-human Id3, clone #BCH-4/#3-3 (antibody, V domains shown, Rabbit IgG from a rabbit hybridoma; also called h Id3 MoAb 3-3) VH: QSVEESGGRLVTPGTPLTLTCTVSGIDLSSYAMSWVRQAPGKGLEWIGVIFPSNNVYYASWAKGRFTISKTSTTVDLKITSPTTEDTATYFCASMGAFDSWGPGTLVTVSS VL: QVLTQTPSPVSAAVGGTVTINCQASQSIYNDNDLAWFQQKPGQPPKLLIYDASTLTSGVPSRFKGSGSGTQFTLTISDLDCDDAATYYCAARYSGNIYGFGGGTEVVVK	A450	0.043 A450
rabbit monoclonal anti-mouse/human Id3, clone #BCH-4/#17-3 (antibody, V domains shown, Rabbit IgG from a rabbit hybridoma; also called m/h Id3 MoAb 17-3; BCH-3/#17-3) VH: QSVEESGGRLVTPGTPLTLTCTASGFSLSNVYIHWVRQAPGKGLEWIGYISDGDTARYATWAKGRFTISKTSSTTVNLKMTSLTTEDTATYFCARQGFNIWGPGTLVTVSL VL: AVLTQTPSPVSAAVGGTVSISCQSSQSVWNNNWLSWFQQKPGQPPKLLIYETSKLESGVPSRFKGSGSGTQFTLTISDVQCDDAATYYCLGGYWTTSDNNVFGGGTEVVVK	A450	0.043 A450

Moving on to the next binder.
-- ask Give its A450 value. Item: rabbit monoclonal anti-mouse/human Id3, clone #BCH-4/#42-1 (antibody, V domains shown, Rabbit IgG from a rabbit hybridoma; also called m/h Id3 MoAb 42-1) VH: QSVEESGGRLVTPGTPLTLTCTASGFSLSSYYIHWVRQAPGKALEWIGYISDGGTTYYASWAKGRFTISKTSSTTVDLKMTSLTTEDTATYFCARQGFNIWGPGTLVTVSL VL: AVLTQTPSPVSAAVGGTVTISCQSSQSVYNNNWLSWFQQKSGQPPKLLIYETSKLESGVPSRFKGSGSGTQFTLTIIDVQCDDAATYYCLGGYWSTSDNNIFGGGTEVVVK
-- reply 0.046 A450
